Molecular target: human ether-à-go-go-related gene (hERG) potassium channel (human, UniProt Q12809);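 further: peak tail current of the secondary pulse compared with the same well before compound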
Sequence (Q12809 whole entry, looked up): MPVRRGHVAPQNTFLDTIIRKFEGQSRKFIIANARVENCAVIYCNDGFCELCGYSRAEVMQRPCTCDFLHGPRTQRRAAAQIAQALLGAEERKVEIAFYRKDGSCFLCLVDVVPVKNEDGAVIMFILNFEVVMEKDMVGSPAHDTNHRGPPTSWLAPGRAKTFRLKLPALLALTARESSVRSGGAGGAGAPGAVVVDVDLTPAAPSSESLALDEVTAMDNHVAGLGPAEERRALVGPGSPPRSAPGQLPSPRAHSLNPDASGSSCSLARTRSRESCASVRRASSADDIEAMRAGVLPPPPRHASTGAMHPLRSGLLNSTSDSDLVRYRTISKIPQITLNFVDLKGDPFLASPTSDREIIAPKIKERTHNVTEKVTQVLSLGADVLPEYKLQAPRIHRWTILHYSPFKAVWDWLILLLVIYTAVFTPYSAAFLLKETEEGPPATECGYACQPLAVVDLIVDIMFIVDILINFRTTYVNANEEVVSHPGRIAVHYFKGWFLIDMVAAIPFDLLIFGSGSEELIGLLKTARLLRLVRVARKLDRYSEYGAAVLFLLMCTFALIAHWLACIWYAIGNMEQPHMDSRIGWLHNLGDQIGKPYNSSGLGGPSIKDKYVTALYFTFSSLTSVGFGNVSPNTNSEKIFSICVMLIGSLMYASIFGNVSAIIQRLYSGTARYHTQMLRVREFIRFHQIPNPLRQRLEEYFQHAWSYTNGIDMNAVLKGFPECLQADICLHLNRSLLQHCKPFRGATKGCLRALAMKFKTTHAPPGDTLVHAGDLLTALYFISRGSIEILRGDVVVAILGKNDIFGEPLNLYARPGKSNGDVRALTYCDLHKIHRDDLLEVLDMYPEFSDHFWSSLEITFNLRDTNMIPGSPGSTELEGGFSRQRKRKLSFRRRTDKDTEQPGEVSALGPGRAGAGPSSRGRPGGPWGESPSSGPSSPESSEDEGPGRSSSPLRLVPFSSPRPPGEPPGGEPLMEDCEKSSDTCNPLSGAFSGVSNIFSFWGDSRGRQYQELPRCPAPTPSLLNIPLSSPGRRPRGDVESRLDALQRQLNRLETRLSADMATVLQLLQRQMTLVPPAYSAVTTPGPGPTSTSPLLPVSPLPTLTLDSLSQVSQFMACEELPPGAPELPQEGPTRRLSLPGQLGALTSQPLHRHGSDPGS
Experiment: primary screen, population patch clamp on CHO cells stably expressing hERG; higher = less effect of the substance
Among all 310,000 compounds or so, about 14,000 (4.5%) showed an effect of 50% or more. Effects have a minus sign here. This excerpt belongs to a sample that is enriched for strong results.
Quick reference for hERG current change (%, negative = inhibition) at 10uM among some compounds
In your response, the unit should come after the numeric value.

The following compounds have reported results that may help.
| Compound | Measured result |
| --- | --- |
| NC(=O)COc1ccc(C(=O)NCC2(N3CCOCC3)CCCCC2)cc1 | 6.98% |
| CCS(=O)(=O)NCC(c1cccnc1)N1CCN(c2ccccc2OC)CC1 (stereo not drawn) | 0.421% |
| CCOc1cccc(/C=C(/C#N)c2nc3ccccc3[nH]2)c1OCC(=O)O | 14.1% |
| CCN1CCN(C(CNS(=O)(=O)c2ccc(OC)c(C)c2)c2cccnc2)CC1 (stereo not drawn) | -70.2% |
| O=C(c1ccco1)N1CCN(C(=O)C2CCCN(S(=O)(=O)Cc3ccccc3)C2)CC1 (stereo not drawn) | -35.4% |

Recall and state the measured hERG current change (%, negative = inhibition) at 10uM for COc1ccc(S(=O)(=O)NCC(c2cccnc2)N2CCN(Cc3ccccc3)CC2)cc1C (stereo not drawn) . -79.6%

###

Biological target: human ether-à-go-go-related gene (hERG) potassium channel (human, UniProt Q12809);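 further: peak tail current of the secondary pulse compared with the same well before compound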
Test: primary screen, population patch clamp on CHO cells stably expressing hERG; higher = less effect of the substance
In all, about 310,000 compounds went through this assay and about 14,000 (4.5%) showed an effect of 50% or more. Effects have a minus sign here. This excerpt belongs to a sample that is enriched for strong results.
The molecules listed here are annotated with their hERG current change (%, negative = inhibition) at 10uM.
Number only, in %; omit the unit.

Take a look at these entries with their results.
| Molecule | Measurement unit | Measured result |
| --- | --- | --- |
| Cc1cc(CNC(=O)c2cccc([N+](=O)[O-])c2C)c2ccccc2n1 | % | -53 |
| COc1ccc(NC(=O)c2oc3ccccc3c2NC(=O)C2CCCO2)cc1OC (stereo not drawn) | % | -17.8 |
| FC(F)(F)c1ccc(C2[C@H]3CN(CC4CCCCC4)[C@H](c4ccccc4)C34CC2(c2cccnc2)C4)cc1 (stereo partly drawn) | % | 0.391 |

Identify measured hERG current change (%, negative = inhibition) at 10uM associated with CCN(CC)CCCNC(=O)c1csc(Nc2cccc3ccccc23)n1 -71.6

Recall and state the measured hERG current change (%, negative = inhibition) at 10uM for CCNC(=O)CSc1nnc(-c2cccc(S(=O)(=O)N(CC)CC)c2)n1CCc1ccccc1 . -9.82

Return hERG current change (%, negative = inhibition) at 10uM (reported value) for this molecule: O=C(N[C@@H]1C[C@H]2CC[C@@H]1C2)c1ccco1 4.88

###

Target: human ether-à-go-go-related gene (hERG) potassium channel (human);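 further: peak tail current of the secondary pulse compared with the same well before compound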
Assay: primary screen, population patch clamp on CHO cells stably expressing hERG; higher = less effect of the substance
Out of some 310,000 compounds screened, about 14,000 (4.5%) showed an effect of 50% or more. The effect is printed as a negative number. The list comes from a sample in which strong results are over-represented; it also holds close analogues and randomly drawn compounds.
compounds and their reported hERG current change (%, negative = inhibition) at 10uM
Record the value in %, omitting the unit from your answer.

| Compound | Measured result |
| --- | --- |
| Cc1cc(=O)oc2cc(OC(C)C(=O)NC3CCCC3)ccc12 (stereo not shown) | -33.4 |
| CCc1cc(=O)oc2cc(C)cc(OC(C)C(=O)NC3CCN(Cc4ccccc4)CC3)c12 (stereo not shown) | -32.8 |
| O=C(OCCN(CCOC(=O)c1ccncc1)S(=O)(=O)c1cccs1)c1ccncc1 | -77.3 |
| CC(Oc1ccc(Br)cc1)C(=O)NC1CCN(Cc2ccccc2)CC1 (stereo not shown) | -80.4 |
| CCCOC(=O)c1ccc(NS(=O)(=O)c2cccs2)cc1 | -6.88 |

# return hERG current change (%, negative = inhibition) at 10uM of CN(C)CC(c1ccccc1)c1ccccc1.Cl (system: human ether-à-go-go-related gene (hERG) potassium channel (human)) 5.32

Give the observed hERG current change (%, negative = inhibition) at 10uM of CN(C)C(C)(C)C#CC(O)(c1ccccc1)c1ccccc1 for human ether-à-go-go-related gene (hERG) potassium channel (human). -26.6

Recall the reported hERG current change (%, negative = inhibition) at 10uM of CCCCC[C@H]1CN(C2CCCCC2)C(=O)[C@@H]1CC(=O)NCc1ccc(OC)cc1 when tested on human ether-à-go-go-related gene (hERG) potassium channel (human). -67.4

Write hERG current change (%, negative = inhibition) at 10uM of Cc1cc(=O)oc2cc(OC(C)C(=O)NC3CCN(Cc4ccccc4)CC3)ccc12 (stereo not shown) ; system used: human ether-à-go-go-related gene (hERG) potassium channel (human) -79.2

Name the value of hERG current change (%, negative = inhibition) at 10uM reported for O=C(Nc1ncc(C(F)(F)F)cc1Cl)c1ccc(S(=O)(=O)N2CCOCC2)cc1 when tested on human ether-à-go-go-related gene (hERG) potassium channel (human). -13.4

// fetch hERG current change (%, negative = inhibition) at 10uM for CN(C)C(C)(C)C#CCC(c1ccccc1)c1ccccc1.Cl ; system: human ether-à-go-go-related gene (hERG) potassium channel (human) -55.9

# return hERG current change (%, negative = inhibition) at 10uM for Cc1cc(=O)oc2c(C)c(OC(C)C(=O)NC3CCN(Cc4ccccc4)CC3)ccc12 (stereo not shown) , test system: human ether-à-go-go-related gene (hERG) potassium channel (human) -48.1

Would you please give the reported hERG current change (%, negative = inhibition) at 10uM of COc1ccc(CNC(=O)C2CC(=O)N(C3CCCCC3)C2)cc1 (stereo not shown) with human ether-à-go-go-related gene (hERG) potassium channel (human)? 13.7

###

Biological target: human ether-à-go-go-related gene (hERG) potassium channel (human, UniProt Q12809);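 further: peak tail current of the secondary pulse compared with the same well before compound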
Experiment: primary screen, population patch clamp on CHO cells stably expressing hERG; higher = less effect of the substance
Hit rate of the full screen: of about 310,000 compounds, about 14,000 (4.5%) showed an effect of 50% or more. Effects have a minus sign here. For the sample, strong results were picked, then their nearest neighbours and some compounds at random.
Measured quantity: hERG current change (%, negative = inhibition) at 10uM (%)
Please state the figure in %; there is no need to write the unit.

| Compound | Test target | Measured result |
| --- | --- | --- |
| O=C(NCc1ccccc1)NS(=O)(=O)c1ccccc1Cl | human ether-à-go-go-related gene (hERG) potassium channel (human, UniProt Q12809) | -4.3 |
| Cc1ccc(/C=C/C(=O)OCC(=O)NCCN2C(=O)CSC2=O)cc1 | human ether-à-go-go-related gene (hERG) potassium channel (human, UniProt Q12809) | -17.9 |
| CN(CC(=O)Nc1ccc(Cl)c(S(=O)(=O)N2CCOCC2)c1)C(=O)c1cccs1 | human ether-à-go-go-related gene (hERG) potassium channel (human, UniProt Q12809) | -44.2 |
| CC1(C)C(CO)=CC(=O)C2=C1SCC(=O)N2 | human ether-à-go-go-related gene (hERG) potassium channel (human, UniProt Q12809) | -16.3 |

Fill in reported hERG current change (%, negative = inhibition) at 10uM for this entry: O=C(COc1ccc2ccccc2c1)N1CCN(C(=O)c2ccco2)CC1 -61.7

Check the records and state hERG current change (%, negative = inhibition) at 10uM for NC(=O)Cc1nc2scc(-c3ccccc3)c2c(=O)[nH]1 37.9

Report measured hERG current change (%, negative = inhibition) at 10uM; entry is CCOC(=O)C1CCN(c2cc3c(cc2NC(=O)c2cc(OC)ccc2Br)n(C)c(=O)n3C)CC1 0.12

Return the recorded hERG current change (%, negative = inhibition) at 10uM value; entry: CCCCC[n+]1ccn(C2=C([O-])c3ccccc3C(=O)/C2=N\S(=O)(=O)c2ccc(Br)cc2)c1 -39.1

Name the recorded hERG current change (%, negative = inhibition) at 10uM of the item CCn1c(=O)n(CC)c2cc(NS(=O)(=O)c3ccccc3)ccc21 in your answer. -68.7

Annotate the compound CN(C)CCCN(C(=O)c1ccc(S(=O)(=O)N(C)C2CCCCC2)cc1)c1nc2ccc(F)cc2s1.Cl with its measured hERG current change (%, negative = inhibition) at 10uM. -71.9

Give the reported value of hERG current change (%, negative = inhibition) at 10uM for this record: O=C(OC(c1ccccc1)c1nccc2ccccc12)c1cccc([N+](=O)[O-])c1 (stereo not drawn) 8.01

Return value of hERG current change (%, negative = inhibition) at 10uM for input C=CCN1C(=O)NC(c2ccccc2)(C(F)(F)F)S/C1=C(\C#N)c1nnc(N2CCOCC2)n1-c1ccccc1 (stereo not drawn) , no commentary. -19.4

For O=C(/C=C/c1ccc(OC(F)F)cc1)OCC(=O)N1CCN(C(=O)c2ccco2)CC1 , write its hERG current change (%, negative = inhibition) at 10uM. -71

For the compound CC(=O)Nc1ccc(S(=O)(=O)N(c2cccnc2)S(=O)(=O)c2ccc(NC(C)=O)cc2)cc1 , report hERG current change (%, negative = inhibition) at 10uM. -3.89

Name the recorded hERG current change (%, negative = inhibition) at 10uM of the item COc1cc2nc(N(CCCN(C)C)C(=O)c3ccc(S(=O)(=O)N(C)C4CCCCC4)cc3)sc2cc1OC.Cl in your answer. -51.6

// fetch hERG current change (%, negative = inhibition) at 10uM given entry Cc1nn(-c2ccccc2)c(Cl)c1/C=N\NC(=O)c1cnccn1 -5

Quote hERG current change (%, negative = inhibition) at 10uM reported for O=C(COc1ccc2ccccc2c1)N1CCN(Cc2ccncc2)CC1.O=C(O)C(=O)O please. -33.9

Please report the measured hERG current change (%, negative = inhibition) at 10uM for O=C(NCc1nnc(SCC(=O)N2CCN(c3ccccc3)CC2)o1)c1ccc(F)cc1 -5.96

Answer with reported hERG current change (%, negative = inhibition) at 10uM of CC1(c2ccc3c(c2)OCCCO3)NC(=O)N(CC(=O)NCCc2ccccc2)C1=O (stereo not drawn) -7.38

Note hERG current change (%, negative = inhibition) at 10uM for the compound shown: Cc1ccc(/C=N/Nc2nc(C(C)(C)C)cs2)o1.Cl -22.5

State its hERG current change (%, negative = inhibition) at 10uM: O=C(COc1ccc2ccccc2c1)N1CCN(C2CCN(Cc3ccccc3)CC2)CC1 -77.7

Write down hERG current change (%, negative = inhibition) at 10uM measured for item C=CCN1C(=O)NC(c2ccc(OC)cc2)(C(F)(F)F)S/C1=C(\C#N)c1nnc(N2CCOCC2)n1-c1ccccc1 (stereo not drawn) -62.4

// data source = paper PMC4336329
